Assay: In vitro proteolysis assay in rat serum
Format: in vitro ADME
Settings: male, Sprague Dawley, diluted 1/100, incubation 15 min, mean±SEM, read-out: Residual concentration
Ends that are not written are not given here.
recorded_metric: remaining at 0.25 h, 15 µM (%)
Answer format: numeric, % implied, no suffix.

# remaining at 0.25 h, 15 µM lookup, item YADAIFTAAYRKVLAQLSARKALQDIMSR-NH2 [GHRH analogue #2]
73
